Hey, just so you know, these numbers are from patent US20250145665A1.

# measured.on: TNFα (Homo sapiens, UniProt P01375)
# Sequence (P01375 77-233 limits assumed): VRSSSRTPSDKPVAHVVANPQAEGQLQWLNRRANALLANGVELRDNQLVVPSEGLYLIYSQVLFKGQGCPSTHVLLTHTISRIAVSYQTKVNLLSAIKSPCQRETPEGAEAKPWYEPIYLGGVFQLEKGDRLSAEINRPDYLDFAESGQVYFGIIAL
# protocol.summary: TNF-Induced HEK-Blue Assay
# Format: cell-based
# assay.setup: HEK-Blue-CD40L cells, NF-kB-driven secreted alkaline phosphatase reporter; TNFα 0.5 ng/ml; 18 h; read-out: TNF induced HEK-Blue assay IC50 value
Starred links: 1 amine or outer side, 2 acyl side, 3 side chain; linkers in the order of their positions; H or OH if unused. Positions of bridges follow the written chain, without caps; N, C: chain ends. Non-standard residues stand in square brackets, D forms with d. Residues, ends and D or L forms follow the SMILES beside them. X17 = O=C(Nc1cccc(-c2ccc(C[C@H](N[*:1])C(=O)[*:2])cc2)c1)c1coc2ccccc12; Bip(4'-NHAc) = CC(=O)Nc1ccc(-c2ccc(C[C@H](N)C(=O)O)cc2)cc1; Ala(morpholin-4-yl) = N[C@@H](CN1CCOCC1)C(=O)O; Bip = N[C@@H](Cc1ccc(-c2ccccc2)cc1)C(=O)O; Sar = CNCC(=O)O
reported.endpoint: IC50

| compound | measured |
| --- | --- |
| CC(=O)Nc1ccc(-c2ccc(C[C@@H]3NC(=O)[C@H](Cc4ccc(-c5ccccc5)cc4)NC(=O)[C@H](CN4CCOCC4)NC(=O)CSC[C@@H](C(=O)NCC(N)=O)NC(=O)[C@H](CC(C)C)NC(=O)[C@H](CCCNC(=N)N)NC(=O)[C@H](C(C)C)NC(=O)[C@@H]4CCCN4C(=O)[C@H](Cc4ccc(O)cc4)NC(=O)[C@H](CCCNC(=N)N)NC(=O)[C@H](CC(=O)O)NC(=O)[C@@H]4CCCN4C(=O)CN(C)C3=O)cc2)cc1 [Example 127] ({CH2CO}-[Ala(morpholin-4-yl)][Bip][Bip(4'-NHAc)][Sar]PDRYPVRLCG-NH2; thioether N-13) | 50 to 200 nM |
| CC(C)C[C@@H]1NC(=O)[C@H](CCCNC(=N)N)NC(=O)[C@H](C(C)C)NC(=O)[C@@H]2CCCN2C(=O)[C@H](C(C)C)NC(=O)[C@@H](CCCNC(=N)N)NC(=O)[C@H](CC(=O)O)NC(=O)[C@@H]2CCCN2C(=O)CN(C)C(=O)[C@H](Cc2ccc(-c3cccc(NC(=O)c4coc5ccccc45)c3)cc2)NC(=O)[C@H](Cc2ccc(-c3ccccc3)cc2)NC(=O)[C@H](CN2CCOCC2)NC(=O)CSC[C@@H](C(=O)NCC(N)=O)NC1=O [Example 344] ({CH2CO}-[Ala(morpholin-4-yl)][Bip][X17][Sar]PD[dR]VPVRLCG-NH2; thioether N-13) | < 50 nM |

* * *

# measured.on: TNFα (Homo sapiens, UniProt P01375)
# protocol.summary: TNF-Induced HEK-Blue Assay
# Assay type: cell-based
# assay.setup: HEK-Blue-CD40L cells, NF-kB-driven secreted alkaline phosphatase reporter; TNFα 0.5 ng/ml; 18 h; read-out: TNF induced HEK-Blue assay IC50 value
Positions of bridges follow the written chain, without caps; N, C: chain ends. Non-standard residues stand in square brackets, D forms with d. Residues, ends and D or L forms follow the SMILES beside them. Bip = N[C@@H](Cc1ccc(-c2ccccc2)cc1)C(=O)O; Val(3-OH) = CC(C)(O)[C@H](N)C(=O)O; Sar = CNCC(=O)O

| compound | IC50 |
| --- | --- |
| CC(C)C[C@@H]1NC(=O)[C@H](Cc2ccc(O)cc2)NC(=O)[C@H](C(C)C)NC(=O)[C@@H]2CCCN2C(=O)[C@H](Cc2ccc(O)cc2)NC(=O)[C@H](CCCNC(=N)N)NC(=O)[C@H](CC(=O)O)NC(=O)[C@H](Cc2ccc(O)cc2)NC(=O)CN(C)C(=O)[C@H](Cc2ccc(-c3ccccc3)cc2)NC(=O)[C@H](Cc2ccc(-c3ccccc3)cc2)NC(=O)[C@H](C(C)(C)O)NC(=O)CSC[C@@H](C(=O)NCC(N)=O)NC1=O [Example 110] ({CH2CO}-[Val(3-OH)][Bip][Bip][Sar]YDRYPVYLCG-NH2; thioether N-13) | 50 to 200 nM |
